tested on: CDK3; details: concentration: 1 μM, replicates: in singlicate; n = 1;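 note: KINOMEscan kinase panel screen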
Measured Parameter: %Inh (%)
One number for each entry, in %.

{"columns": ["Smiles Text", "%Inh [%]"],
 "data": [
  ["O=C(Nc1ccccc1)Nc1ccc(Oc2ccc3nccn3n2)cc1", 1]
]}

Provide %Inh for all items below, preserving their order.
1. COc1ccc(-c2oc3ncnc(N)c3c2-c2ccc(OC)cc2)cc1
2. Cl.O=S(=O)(c1cccc(F)c1)c1ccc(Nc2ncnc3cc(Br)sc23)cc1Cl
3. Cn1cc(-c2ccc3c(c2)CCN3C(=O)Cc2cccc(C(F)(F)F)c2)c2c(N)ncnc21

Response:
[6, 44, 0]

Provide %Inh for all items below, preserving their order.
1. Clc1cccc(-c2nc(Nc3ccncc3)c3ccccc3n2)c1
2. O=C(c1ccc(-c2cc(-c3c[nH]nc3-c3ccccn3)ccn2)cc1)N1CCCC1
3. Fc1cccc(COc2ccc(Nc3ncnc4sc(-c5ccc[nH]5)cc34)cc2Cl)c1
4. Cn1ccc2ncnc(Nc3ccc(Oc4cccc(Cl)c4)c(Cl)c3)c21
5. Nc1nc(-c2ccc3c(N)n[nH]c3c2)cc(N2CCCCC2)n1

Response:
1. 0
2. 72
3. 10
4. 0
5. 17

Prompt: Record request: %Inh value, item O=C(CCO)NCCn1ccc2ncnc(Nc3ccc(Oc4cccc(C(F)(F)F)c4)c(Cl)c3)c21
Response: 0
